Biological target: Carbonic anhydrase 2 (Homo sapiens)
Test: hCA Activity Assay
Parameter measured: Ki (µM)

>  <Structure string>
CC1(C)CC(=O)C2=C(C1)N(c1ccc(S(N)(=O)=O)cc1)C1=C(C(=O)CC(C)(C)C1)C2c1ccccn1

>  <Assay value>
0.13

$$$$
>  <Structure string>
COc1ccc(C2C3=C(CCCC3=O)N(c3ccc(S(N)(=O)=O)cc3)C3=C2C(=O)CCC3)c(OC)c1

>  <Assay value>
0.0015

$$$$
>  <Structure string>
CC1(C)CC(=O)C2=C(C1)N(c1ccc(S(N)(=O)=O)cc1)C1=C(C(=O)CC(C)(C)C1)C2c1ccc(C#N)cc1

>  <Assay value>
0.25

$$$$
>  <Structure string>
COc1ccc(C2C3=C(CCCC3=O)N(c3ccc(S(N)(=O)=O)cc3)C3=C2C(=O)CCC3)cc1

>  <Assay value>
0.007

$$$$
